src = patent US20210277126A1

# test.system: T1, cynomolgus monkey CLL1 ECD (65-265) (cynomolgus monkey)
# T1 construct: Expressed in 293-F cells and purified by IMAC; also called cynoCLL1; recombinant cynomolgus monkey CLL1 protein
# T1 chain: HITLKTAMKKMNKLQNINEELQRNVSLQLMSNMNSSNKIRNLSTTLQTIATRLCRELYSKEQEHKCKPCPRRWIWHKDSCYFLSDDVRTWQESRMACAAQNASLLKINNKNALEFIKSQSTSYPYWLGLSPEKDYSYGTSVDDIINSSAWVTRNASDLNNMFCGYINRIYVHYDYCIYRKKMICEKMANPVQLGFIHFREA
# measurement.description: SPR (Biacore T200), sdAb supernatant, recombinant cynomolgus CLL1
Rule for this label: yes (1) means Kd is less than 3 nM; no (0) means Kd is at least 3 nM.

Study these solved cases before continuing.
AS82718 sdAb (VHH, Camel sdAb tested as E. coli culture supernatant; not shown: C-terminal His-tag encoded by the soluble expression vector) VHH: QVQLAESGGGLVQTGGSLRLSCTASGLNFGLYAMGWFRQAPGKEREGVSCINGGGGITVYSDFVKSRFTISRDNAKNTLYLQMNSLKPDDTATYYCAADRSPFGSCSSDWSRSSDWSRMAEKFGYWGQGTQVTVSS    yes (1)
AS83457 sdAb (VHH, Camel sdAb tested as E. coli culture supernatant; not shown: C-terminal His-tag encoded by the soluble expression vector) VHH: QVQLVESGGGLVQPGGSLRLSCAASGFFFSIYDMNWFRQAPGKGLEWVSGITGNGYTTAYADSVKGRFTISRDNAKNTLYLQLNSLKSEDTAMYYCAQGSNRGRGTQVTVSS    no (0)
AS83180 sdAb (VHH, Camel sdAb tested as E. coli culture supernatant; not shown: C-terminal His-tag encoded by the soluble expression vector) VHH: QVQLVESGGGSVQAGGSLRLSCVVSAATNCRYIAWYRQAPGKAREFVSTLGSDGNTNYADSVKGRFTISQGNIKNMAYLEMNSLKPEDTGMYYCGTRCQIGDDWRSSDWAQGTQVTVSS    yes (1)
AS83431 sdAb (VHH, Camel sdAb tested as E. coli culture supernatant; not shown: C-terminal His-tag encoded by the soluble expression vector) VHH: QVRLVESGGGSVQSGGSLRLSCAASGYARSSTCLGWFRQAPGKEVEGVAIIGRDGSTGYADSVKGRFTISQDNAKNTLYLHMDSLKPEDTAMYYCAAVEGGCEVSEGTGEQQLAYWGQGTQVTVSS    yes (1)
AS82544 sdAb (VHH, Camel sdAb tested as E. coli culture supernatant; not shown: C-terminal His-tag encoded by the soluble expression vector) VHH: EVQLVESGGALVQPGGSLRLSCTASGFLFRVYDMNWVRQAPGKGVEWIVGITNNGYTTAYADSVKGRFTISRDNTENTLFLQMNSLKPEDTAMYYCQTDNGRVRGQGTQVTVSS    no (0)
AS83010 sdAb (VHH, Camel sdAb tested as E. coli culture supernatant; not shown: C-terminal His-tag encoded by the soluble expression vector) VHH: QVQLVESGGGLVQPGGSLRLSCVASGFFFSAYDMNWFRQAPGKGLEWVSGITGNGYTTAYADSVKGRFTISRDNAKNTLYLQLNSLKSEDTAMYYCTEGDNRGQGTQVTVSS    no (0)
AS83591 sdAb (VHH, Camel sdAb tested as E. coli culture supernatant; not shown: C-terminal His-tag encoded by the soluble expression vector) VHH: QVQLVESGGGLVQPGGSLRLSCAASGFLFSIYDMNWVRQAPGKGVEWIAGITNNEHTTAYADSVKGRFTISRDNTKNTLFLQMNSLKPEDTAMYYCQRDDGQVRGQGTQVTVSS    no (0)

Turning to the following binder.
Consider AS83309 sdAb (VHH, Camel sdAb tested as E. coli culture supernatant; not shown: C-terminal His-tag encoded by the soluble expression vector) VHH: EVQLVESGGDLVRPGGSLRLSCAASGFTFSIYDMNWVRQAPGKGLEWVAGISGNGYSTSYAESVKGRFTISKDNAKNTVYLQLSSLKFEDTAMYYCVRGGEKWDENDLRRKGQGTQVTVSS . Does its Kd lie strictly below 3 nM?
yes (1)
